- tgt: αvβ6 (Homo sapiens, UniProt P06756+P18564)
- Sequence (P06756 31-992 limits assumed): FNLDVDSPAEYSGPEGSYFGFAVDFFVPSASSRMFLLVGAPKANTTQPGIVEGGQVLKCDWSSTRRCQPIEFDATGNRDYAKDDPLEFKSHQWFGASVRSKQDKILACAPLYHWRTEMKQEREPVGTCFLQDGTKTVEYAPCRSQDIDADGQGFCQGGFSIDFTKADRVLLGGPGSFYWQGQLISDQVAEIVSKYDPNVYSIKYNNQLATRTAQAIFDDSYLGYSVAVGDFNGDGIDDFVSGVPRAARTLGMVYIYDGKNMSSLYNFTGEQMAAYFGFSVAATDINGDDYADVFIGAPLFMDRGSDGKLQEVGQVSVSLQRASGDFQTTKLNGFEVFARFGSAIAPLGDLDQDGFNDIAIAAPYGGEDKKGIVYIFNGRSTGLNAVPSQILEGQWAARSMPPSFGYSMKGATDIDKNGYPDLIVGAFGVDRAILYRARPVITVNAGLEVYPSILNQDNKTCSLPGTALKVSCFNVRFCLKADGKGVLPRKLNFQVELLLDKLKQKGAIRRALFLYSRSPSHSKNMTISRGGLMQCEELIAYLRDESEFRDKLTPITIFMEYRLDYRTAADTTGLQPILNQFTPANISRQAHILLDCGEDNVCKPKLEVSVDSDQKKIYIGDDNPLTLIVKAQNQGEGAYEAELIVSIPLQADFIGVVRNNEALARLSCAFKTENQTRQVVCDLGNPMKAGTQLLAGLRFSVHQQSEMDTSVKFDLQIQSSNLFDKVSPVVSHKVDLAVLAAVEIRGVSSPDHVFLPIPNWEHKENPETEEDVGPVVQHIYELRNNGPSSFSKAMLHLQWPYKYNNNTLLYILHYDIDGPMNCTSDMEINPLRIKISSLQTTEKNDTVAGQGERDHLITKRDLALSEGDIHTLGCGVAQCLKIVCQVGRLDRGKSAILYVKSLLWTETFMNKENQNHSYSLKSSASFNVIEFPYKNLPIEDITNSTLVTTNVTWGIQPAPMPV
- Sequence (P18564 22-707 limits assumed): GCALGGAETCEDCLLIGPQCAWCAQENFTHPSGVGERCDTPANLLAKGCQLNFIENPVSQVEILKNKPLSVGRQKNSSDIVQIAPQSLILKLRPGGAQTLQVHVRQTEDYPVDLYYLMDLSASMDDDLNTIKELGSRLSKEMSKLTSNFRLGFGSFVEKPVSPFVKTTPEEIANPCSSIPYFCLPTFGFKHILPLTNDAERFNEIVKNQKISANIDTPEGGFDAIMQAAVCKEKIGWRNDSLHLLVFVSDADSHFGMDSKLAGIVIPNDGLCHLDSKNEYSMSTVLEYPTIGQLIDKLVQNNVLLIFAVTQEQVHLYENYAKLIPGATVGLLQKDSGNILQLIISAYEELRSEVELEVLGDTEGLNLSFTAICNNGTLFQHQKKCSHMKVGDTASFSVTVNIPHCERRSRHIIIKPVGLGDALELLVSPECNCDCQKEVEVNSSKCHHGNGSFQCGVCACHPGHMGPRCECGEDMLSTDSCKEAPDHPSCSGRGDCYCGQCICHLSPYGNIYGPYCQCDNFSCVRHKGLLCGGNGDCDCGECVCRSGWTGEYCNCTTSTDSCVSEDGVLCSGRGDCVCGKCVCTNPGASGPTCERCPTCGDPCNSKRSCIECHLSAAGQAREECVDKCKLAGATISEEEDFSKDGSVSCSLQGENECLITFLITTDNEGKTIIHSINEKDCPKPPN
- assay_explanation: Solid Phase Integrin αvβ6 Assay
pIC50: −log10 of the molar value. Counter-ions that a name gives are not always drawn.

molecule: C[C@@H]1C[C@@H](C(=O)NC[C@@H](C(=O)O)c2cccc(-c3ccccc3)c2)CN(CCCc2ccc3c(n2)NCCC3)C1
pIC50: 6.00 to 7.00
--
molecule: O=C(O)[C@@H](CCO[C@@H]1CCCN(CCCc2ccc3c(n2)NCCC3)C1)NC(=O)[C@@H]1CCCN1S(=O)(=O)c1ccccc1
pIC50: < 6.00
--
molecule: O=C(O)CC(CO[C@@H]1CCCN(Cc2ccc3c(n2)NCCC3)C1)c1ccccc1 (stereo partly drawn)
pIC50: 6.00 to 7.00
--
molecule: O=C(N[C@@H](CNC(=O)[C@@H]1CCCN(CCCc2ccc3c(n2)NCCC3)C1)C(=O)O)c1ccncc1
pIC50: > 7.00
--
molecule: O=C(NC[C@H](Nc1ncnc2ccsc12)C(=O)O)[C@@H]1CCCN(CCCc2ccc3c(n2)NCCC3)C1
pIC50: > 7.00
--
molecule: O=C(O)C[C@H](NC(=O)[C@@H]1CN(CCCc2ccc3c(n2)NCCC3)CC(F)(F)C1)c1ccccc1
pIC50: > 7.00
--
molecule: O=C(O)[C@H](CCO[C@@H]1CCCN(CCCc2ccc3c(n2)NCCC3)C1)Nc1ncnc2sccc12
pIC50: > 7.00
--
molecule: O=C(O)C[C@H](NC(=O)[C@@H]1CCCN(CCCc2ccc3c(n2)NCCC3)C1)c1ccc2c(c1)OCC2
pIC50: > 7.00
--
molecule: O=C(O)C(CCO[C@@H]1CCCN(CCCc2ccc3c(n2)NCCC3)C1)c1ccnc(-c2ccccc2)c1 (stereo partly drawn)
pIC50: < 6.00
--
molecule: O=C(O)[C@H](c1ccccc1)[C@@H](O)CO[C@@H]1CCCN(CCCc2ccc3c(n2)NCCC3)C1
pIC50: < 6.00
--
molecule: O=C(O)C[C@H](NC(=O)[C@@H]1CCCN(CCCc2ccc3c(n2)NCCC3)C1)c1ccc2ccccc2c1 [Compound 207, hydrochloride]
pIC50: 6.00 to 7.00
--
molecule: O=C(N[C@@H](CNC(=O)[C@@H]1CCCN(CCCc2ccc3c(n2)NCCC3)C1)C(=O)O)c1ccc(Cl)c(Cl)c1
pIC50: > 7.00

* * *

- tgt: αvβ1 (Homo sapiens, UniProt P05556+P06756)
- Sequence (P05556 21-728 limits assumed, one chain of several): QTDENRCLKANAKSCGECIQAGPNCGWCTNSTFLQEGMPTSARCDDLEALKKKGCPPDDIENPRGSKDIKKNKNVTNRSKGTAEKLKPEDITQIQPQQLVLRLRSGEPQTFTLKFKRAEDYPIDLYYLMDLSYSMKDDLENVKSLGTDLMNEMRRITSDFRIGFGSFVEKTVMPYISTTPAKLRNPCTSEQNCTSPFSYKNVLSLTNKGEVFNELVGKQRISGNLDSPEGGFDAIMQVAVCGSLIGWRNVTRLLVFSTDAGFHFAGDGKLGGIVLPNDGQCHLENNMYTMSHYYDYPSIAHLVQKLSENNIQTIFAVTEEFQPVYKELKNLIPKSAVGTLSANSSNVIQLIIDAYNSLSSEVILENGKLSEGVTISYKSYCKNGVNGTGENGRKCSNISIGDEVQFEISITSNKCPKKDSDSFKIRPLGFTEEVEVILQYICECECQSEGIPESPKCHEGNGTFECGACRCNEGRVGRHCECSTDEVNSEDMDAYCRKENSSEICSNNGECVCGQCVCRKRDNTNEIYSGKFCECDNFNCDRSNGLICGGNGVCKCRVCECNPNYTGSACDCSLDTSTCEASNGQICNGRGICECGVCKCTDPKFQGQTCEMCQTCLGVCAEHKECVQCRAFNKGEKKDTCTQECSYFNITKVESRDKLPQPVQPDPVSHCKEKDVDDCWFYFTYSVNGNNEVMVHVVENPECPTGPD
- assay_explanation: Solid Phase Integrin αvβ1 Assay
Where a name gives a salt, the structure may show the parent alone.
measured_attribute: IC50

molecule: O=C(NC[C@@H](C(=O)O)c1cccc2n[nH]cc12)[C@@H]1CCCN(CCCc2ccc3c(n2)NCCC3)C1
measured_attribute: IC50
result: < 100 nM
--
molecule: COc1ccc([C@H](CC(=O)O)NC(=O)[C@@H]2CCCN(CCCc3ccc4c(n3)NCCC4)C2)cn1 [Compound 221, hydrochloride]
measured_attribute: IC50
result: < 100 nM
--
molecule: O=C(NC[C@@H](C(=O)O)c1cccc2c1cnn2CC1CC1)[C@@H]1CCCN(CCCc2ccc3c(n2)NCCC3)C1
measured_attribute: IC50
result: 100 to 1000 nM
--
molecule: O=C(O)[C@H](CCO[C@@H]1CCCN(CCCc2ccc3c(n2)NCCC3)C1)NC(=O)[C@@H]1CCCN1S(=O)(=O)c1ccccc1
measured_attribute: IC50
result: < 100 nM
--
molecule: O=C(O)C[C@H](NC(=O)[C@@H]1CCCN(CCCc2ccc3c(n2)NCCC3)C1)c1cccc(N2CCCC2)c1
measured_attribute: IC50
result: < 100 nM
--
molecule: O=C(O)C[C@H](CO[C@@H]1CCCN(CCCc2ccc3c(n2)NCCC3)C1)c1ccnc(C2CC2)c1
measured_attribute: IC50
result: < 100 nM
--
molecule: CC1(C)CN(c2cccc([C@@H](CO[C@@H]3CCCN(CCCc4ccc5c(n4)NCCC5)C3)CC(=O)O)c2)CCO1
measured_attribute: IC50
result: < 100 nM
--
molecule: O=C(O)[C@H](CCO[C@@H]1CCCN(Cc2ccc3c(n2)NCCC3)C1)NC(=O)C12CCC(CC1)CC2
measured_attribute: IC50
result: 100 to 1000 nM
--
molecule: O=C(O)C[C@@H](O[C@@H]1CCCN(Cc2ccc3c(n2)NCCC3)C1)c1ccccc1
measured_attribute: IC50
result: > 1000 nM
--
molecule: O=C(N[C@@H](CNC(=O)[C@@H]1CCCN(CCCc2ccc3c(n2)NCCC3)C1)C(=O)O)c1c(Cl)cccc1Cl
measured_attribute: IC50
result: < 100 nM
--
molecule: O=C(NC[C@H](C(=O)O)c1ccc(F)c(-c2ccccc2)c1F)[C@@H]1CCCN(CCCc2ccc3c(n2)NCCC3)C1
measured_attribute: IC50
result: 100 to 1000 nM
